Consider the following molecules and their measured IC50 readings.
# measured-on: JAK2 (Homo sapiens (Human))
# assay-protocol: Enzyme assay (Assay Example^a 1), JAK2
# Type: biochemical
# test-parameters: ATP 100 μM

smiles-input | IC50 / µM
N#CCNC[C@H]1CC[C@H](c2nnn3cnc4[nH]ccc4c23)CC1 | 0.0081
N#CCN1CCC(c2nnn3cnc4[nH]ccc4c23)CC1 | 0.019
Brc1ccc(CN2CCC(c3nnn4cnc5[nH]ccc5c34)CC2)s1 | 0.0046
N#CC1(c2ccccc2)CCN(C[C@H]2CC[C@H](c3nnn4cnc5[nH]ccc5c34)CC2)CC1 | 0.38
c1cc2c(ncn3nnc([C@H]4CC[C@H](CNC5CC5)CC4)c23)[nH]1 | 0.062
N#CCCN1CCN(C[C@H]2CC[C@H](c3nnn4cnc5[nH]ccc5c34)CC2)CC1 | 0.19
O=C1COc2ccc(CN3CCC(c4nnn5cnc6[nH]ccc6c45)CC3)cc2N1 | 0.2
O[C@H]1CC[C@H](NC[C@H]2CC[C@H](c3nnn4cnc5[nH]ccc5c34)CC2)CC1 | 0.29

* * *

# measured-on: JAK3 (Homo sapiens (Human))
# Sequence (P52333 whole entry): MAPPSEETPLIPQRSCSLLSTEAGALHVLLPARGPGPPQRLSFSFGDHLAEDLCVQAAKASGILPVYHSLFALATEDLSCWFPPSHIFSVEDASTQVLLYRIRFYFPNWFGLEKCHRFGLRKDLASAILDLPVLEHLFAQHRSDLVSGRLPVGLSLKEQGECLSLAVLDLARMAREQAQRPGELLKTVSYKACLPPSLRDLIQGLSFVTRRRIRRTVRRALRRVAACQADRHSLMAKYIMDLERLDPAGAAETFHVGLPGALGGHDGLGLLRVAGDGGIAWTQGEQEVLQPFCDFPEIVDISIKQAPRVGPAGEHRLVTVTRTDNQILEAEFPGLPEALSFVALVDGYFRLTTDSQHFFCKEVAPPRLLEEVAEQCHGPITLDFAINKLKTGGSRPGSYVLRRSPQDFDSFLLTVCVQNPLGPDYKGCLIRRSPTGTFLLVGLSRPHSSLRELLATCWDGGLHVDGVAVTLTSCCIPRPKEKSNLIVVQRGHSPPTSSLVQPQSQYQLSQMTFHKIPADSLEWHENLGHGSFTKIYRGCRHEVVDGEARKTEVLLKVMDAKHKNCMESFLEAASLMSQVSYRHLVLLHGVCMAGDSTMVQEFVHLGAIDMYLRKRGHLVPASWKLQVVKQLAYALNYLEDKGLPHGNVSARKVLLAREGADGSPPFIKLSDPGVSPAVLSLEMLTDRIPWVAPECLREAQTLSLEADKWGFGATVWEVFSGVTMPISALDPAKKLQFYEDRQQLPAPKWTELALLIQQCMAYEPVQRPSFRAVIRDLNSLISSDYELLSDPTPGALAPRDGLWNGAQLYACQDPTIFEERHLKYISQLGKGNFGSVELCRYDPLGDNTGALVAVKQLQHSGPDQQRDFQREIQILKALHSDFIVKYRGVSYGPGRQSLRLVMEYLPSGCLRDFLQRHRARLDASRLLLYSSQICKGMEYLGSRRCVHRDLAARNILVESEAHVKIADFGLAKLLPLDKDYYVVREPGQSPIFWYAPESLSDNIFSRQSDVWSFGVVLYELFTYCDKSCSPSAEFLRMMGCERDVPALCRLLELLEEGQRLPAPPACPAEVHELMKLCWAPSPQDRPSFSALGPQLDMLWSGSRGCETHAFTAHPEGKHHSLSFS
# assay-protocol: Enzyme assay (Assay Example^a 1), JAK3
# Type: biochemical
# test-parameters: ATP 100 μM
Consider the following compounds and their measured IC50 readings.

compound | measured-on | operator | IC50, µM
c1cc2c(ncn3nnc([C@H]4CC[C@H](CN5CCSC5)CC4)c23)[nH]1 [compound 254] | JAK3 (Homo sapiens (Human)) | = | 0.53
CS(=O)(=O)NC[C@H]1CC[C@H](c2nnn3cnc4[nH]ccc4c23)CC1 [compound 427] | JAK3 (Homo sapiens (Human)) | = | 0.03
c1cc2c(ncn3nnc(C4CCN(Cc5cscn5)CC4)c23)[nH]1 [compound 240] | JAK3 (Homo sapiens (Human)) | = | 0.6
N#Cc1ccc(CN2CCC(c3nnn4cnc5[nH]cc(Cl)c5c34)CC2)cc1 [compound 377] | JAK3 (Homo sapiens (Human)) | = | 0.054
CC(C)(C)OC(=O)NCC1CCN(C[C@H]2CC[C@H](c3nnn4cnc5[nH]ccc5c34)CC2)CC1 [compound 336] | JAK3 (Homo sapiens (Human)) | > | 1
O=C(NCCO)[C@H]1CC[C@H](c2nnn3cnc4[nH]ccc4c23)CC1 [compound 360] | JAK3 (Homo sapiens (Human)) | > | 1
COc1ccc(CNC[C@H]2CC[C@H](c3nnn4cnc5[nH]ccc5c34)CC2)cc1 [compound 270] | JAK3 (Homo sapiens (Human)) | = | 0.75
C#CCNC[C@H]1CC[C@H](c2nnn3cnc4[nH]ccc4c23)CC1 [compound 333] | JAK3 (Homo sapiens (Human)) | > | 1

* * *

# measured-on: Tyk2 (Homo sapiens (Human), UniProt P29597)
# Sequence (P29597 whole entry): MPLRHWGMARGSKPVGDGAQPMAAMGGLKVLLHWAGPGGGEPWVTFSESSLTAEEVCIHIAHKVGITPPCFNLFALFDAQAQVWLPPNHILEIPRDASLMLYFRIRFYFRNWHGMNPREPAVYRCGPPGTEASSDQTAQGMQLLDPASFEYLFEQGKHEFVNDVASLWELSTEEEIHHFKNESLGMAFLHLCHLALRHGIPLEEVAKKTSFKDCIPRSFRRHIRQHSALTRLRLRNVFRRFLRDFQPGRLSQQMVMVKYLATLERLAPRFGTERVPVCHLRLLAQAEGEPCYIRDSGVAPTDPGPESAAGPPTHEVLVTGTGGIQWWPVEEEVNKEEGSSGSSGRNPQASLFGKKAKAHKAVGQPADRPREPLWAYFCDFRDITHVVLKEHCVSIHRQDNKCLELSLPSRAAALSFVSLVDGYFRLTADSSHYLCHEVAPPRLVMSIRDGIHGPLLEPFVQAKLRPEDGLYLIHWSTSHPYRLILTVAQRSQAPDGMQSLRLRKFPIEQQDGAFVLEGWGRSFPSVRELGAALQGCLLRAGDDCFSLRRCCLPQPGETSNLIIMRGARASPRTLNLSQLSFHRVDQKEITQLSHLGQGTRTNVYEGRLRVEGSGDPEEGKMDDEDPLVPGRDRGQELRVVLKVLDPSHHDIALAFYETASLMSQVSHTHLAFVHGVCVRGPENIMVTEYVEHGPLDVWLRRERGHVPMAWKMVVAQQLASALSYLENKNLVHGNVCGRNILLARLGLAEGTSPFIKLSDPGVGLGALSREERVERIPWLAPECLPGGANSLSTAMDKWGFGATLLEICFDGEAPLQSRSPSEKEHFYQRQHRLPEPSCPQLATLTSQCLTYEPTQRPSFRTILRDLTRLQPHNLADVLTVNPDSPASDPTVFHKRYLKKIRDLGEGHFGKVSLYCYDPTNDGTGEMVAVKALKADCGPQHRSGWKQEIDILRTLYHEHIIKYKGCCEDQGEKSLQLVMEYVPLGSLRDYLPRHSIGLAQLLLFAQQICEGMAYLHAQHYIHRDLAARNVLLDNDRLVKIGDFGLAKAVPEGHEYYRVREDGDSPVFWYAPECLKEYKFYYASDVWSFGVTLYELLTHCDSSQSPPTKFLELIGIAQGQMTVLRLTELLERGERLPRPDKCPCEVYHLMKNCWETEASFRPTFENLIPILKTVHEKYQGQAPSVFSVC
# assay-protocol: Tyk2 enzyme assay (Assay Example^b 1)
# test-parameters: IC50 (μM) TYK2, Table^b 80; ATP 100 μM
Consider the following molecules and their measured IC50 readings.

molecule | operator | IC50 [µM]
O=c1ccn(C2CCN(Cc3ccc(Br)o3)CC2)c2c1cnc1[nH]ccc12 [compound 80] | = | 0.24
N#Cc1ccc(CN2CCC(N3C(=O)NCc4cnc5[nH]ccc5c43)CC2)cc1 [compound 62] | > | 1
O=C(c1ccc(Cl)s1)N1CCC(n2ccc(=O)c3cnc4[nH]ccc4c32)CC1 [compound 87] | > | 1
C[C@@H]1CCN(Cc2ccccc2)C[C@@H]1n1ccc(=O)c2cnc3[nH]cc(Br)c3c21 (racemic) [compound 21] | > | 1
O=C(CC(F)(F)F)N1CCC(N2C(=O)NCc3cnc4[nH]ccc4c32)CC1 [compound 65] | = | 2.9
C[C@@H]1CCN(Cc2cccc(C#N)c2)C[C@@H]1n1ccc(=O)c2cnc3[nH]ccc3c21 (racemic) [compound 42] | > | 1
O=C1NCc2cnc3[nH]ccc3c2N1C1CCN(Cc2cccnc2)CC1 [compound 61] | = | 3.6
O=C1NCc2cnc3[nH]ccc3c2N1C1CCN(Cc2ccccc2)CC1 [compound 59] | = | 4.3

* * *

# measured-on: JAK2 (Homo sapiens (Human), UniProt O60674)
# assay-protocol: Enzyme assay (Assay Example^a 1), JAK2
# Type: biochemical
# test-parameters: ATP 100 μM; Table^a 154
// bucketize IC50: A = under 0.03 µM, B = from 0.03 µM up to 0.1 µM, C = 0.1 µM and over

compound | measured-on | class-label
N#Cc1ccc(NC[C@H]2CC[C@H](c3nnn4cnc5[nH]ccc5c34)CC2)cc1C(F)(F)F [compound 105] | JAK2 (Homo sapiens (Human), UniProt O60674) | C
Fc1cc(CN2CCC(c3nnn4cnc5[nH]ccc5c34)CC2)ccc1Cl [compound 159] | JAK2 (Homo sapiens (Human), UniProt O60674) | A
Fc1cnccc1CN1CCC(c2nnn3cnc4[nH]ccc4c23)CC1 [compound 161] | JAK2 (Homo sapiens (Human), UniProt O60674) | A
Fc1ccc(CN[C@H]2CC[C@@H](c3nnn4cnc5[nH]ccc5c34)CC2)cc1 [195a] | JAK2 (Homo sapiens (Human), UniProt O60674) | C
Clc1cc(CN2CCC(c3nnn4cnc5[nH]ccc5c34)CC2)ccn1 [compound 160] | JAK2 (Homo sapiens (Human), UniProt O60674) | A
Fc1ccc(CCNC[C@H]2CC[C@H](c3nnn4cnc5[nH]ccc5c34)CC2)cc1 [compound 111] | JAK2 (Homo sapiens (Human), UniProt O60674) | A
N#C[C@H]1CCN(C[C@H]2CC[C@H](c3nnn4cnc5[nH]ccc5c34)CC2)C1 [compound 187] | JAK2 (Homo sapiens (Human), UniProt O60674) | B
c1cc2c(ncn3nnc(C4CCCNC4)c23)[nH]1 (racemic) [compound 15] | JAK2 (Homo sapiens (Human), UniProt O60674) | C
Fc1cc(C(F)(F)F)ccc1CN1CCC(c2nnn3cnc4[nH]ccc4c23)CC1 [compound 157] | JAK2 (Homo sapiens (Human), UniProt O60674) | A
Fc1ccc(CCN[C@H]2CC[C@H](c3nnn4cnc5[nH]ccc5c34)CC2)cc1 [201b] | JAK2 (Homo sapiens (Human), UniProt O60674) | B
O=C1NCCN1CCNC[C@H]1CC[C@H](c2nnn3cnc4[nH]ccc4c23)CC1 [compound 191] | JAK2 (Homo sapiens (Human), UniProt O60674) | B
FC(F)(F)Oc1ccc(CNC[C@H]2CC[C@H](c3nnn4cnc5[nH]ccc5c34)CC2)cc1 [compound 110] | JAK2 (Homo sapiens (Human), UniProt O60674) | B
c1ccc(CCCN[C@H]2CC[C@@H](c3nnn4cnc5[nH]ccc5c34)CC2)cc1 [136a] | JAK2 (Homo sapiens (Human), UniProt O60674) | C
OC(CNC[C@H]1CC[C@H](c2nnn3cnc4[nH]ccc4c23)CC1)(c1ccccc1)C(F)(F)F (mixture of isomers) [compound 172] | JAK2 (Homo sapiens (Human), UniProt O60674) | B
FC(F)(F)c1nc2cc(NC[C@H]3CC[C@H](c4nnn5cnc6[nH]ccc6c45)CC3)ccc2[nH]1 [compound 175] | JAK2 (Homo sapiens (Human), UniProt O60674) | A
c1cc2c(ncn3nnc([C@H]4CC[C@@H](NN5CCOCC5)CC4)c23)[nH]1 [139a] | JAK2 (Homo sapiens (Human), UniProt O60674) | C
Clc1ccc(CCNC[C@H]2CC[C@H](c3nnn4cnc5[nH]ccc5c34)CC2)cc1 [compound 178] | JAK2 (Homo sapiens (Human), UniProt O60674) | A
FC(F)(F)C1CCC(N2CCC(c3nnn4cnc5[nH]ccc5c34)CC2)CC1 (single isomer, unassigned) [56a] | JAK2 (Homo sapiens (Human), UniProt O60674) | C
Cc1ccc(CNC[C@H]2CC[C@H](c3nnn4cnc5[nH]ccc5c34)CC2)o1 [compound 182] | JAK2 (Homo sapiens (Human), UniProt O60674) | B
C[C@@H](O)CNC[C@H]1CC[C@H](c2nnn3cnc4[nH]ccc4c23)CC1 [compound 185] | JAK2 (Homo sapiens (Human), UniProt O60674) | B
Cc1cc(NC(=O)N2CCCC(c3nnn4cnc5[nH]ccc5c34)C2)sn1 (racemic) [compound 21] | JAK2 (Homo sapiens (Human), UniProt O60674) | C
OC(CN1CCC(c2nnn3cnc4[nH]ccc4c23)CC1)c1ccc(C(F)(F)F)cc1 (racemic) [compound 212] | JAK2 (Homo sapiens (Human), UniProt O60674) | B
c1ccc(CN[C@H]2CC[C@@H](c3nnn4cnc5[nH]ccc5c34)CC2)cc1 [194a] | JAK2 (Homo sapiens (Human), UniProt O60674) | C
Fc1ccc(CN2CCC(c3nnn4cnc5[nH]ccc5c34)CC2)cc1F [compound 166] | JAK2 (Homo sapiens (Human), UniProt O60674) | A
FC(F)(F)c1ccc(CCN2CCC(c3nnn4cnc5[nH]ccc5c34)CC2)cc1 [compound 42] | JAK2 (Homo sapiens (Human), UniProt O60674) | C
FC1(F)CCC(c2nnn3cnc4[nH]ccc4c23)CC1 [compound 64] | JAK2 (Homo sapiens (Human), UniProt O60674) | C
CC(C)(C)OC(=O)NCCN1CCC(c2nnn3cnc4[nH]ccc4c23)CC1 [compound 171] | JAK2 (Homo sapiens (Human), UniProt O60674) | C
FC(F)(F)c1ccc(CN[C@H]2CC[C@@H](c3nnn4cnc5[nH]ccc5c34)CC2)cc1 [138a] | JAK2 (Homo sapiens (Human), UniProt O60674) | C
O=C(NCc1ccc(F)cc1)[C@H]1CC[C@H](c2nnn3cnc4[nH]ccc4c23)CC1 [compound 207] | JAK2 (Homo sapiens (Human), UniProt O60674) | B
Fc1cc(Cl)ccc1CN1CCC(c2nnn3cnc4[nH]ccc4c23)CC1 [compound 158] | JAK2 (Homo sapiens (Human), UniProt O60674) | A
FC(F)(F)C1CCC(N2CCC(c3nnn4cnc5[nH]ccc5c34)CC2)CC1 (single isomer, unassigned) [56b] | JAK2 (Homo sapiens (Human), UniProt O60674) | C
OC(CN[C@H]1CC[C@@H](c2nnn3cnc4[nH]ccc4c23)CC1)(c1ccccc1)C(F)(F)F (mixture of isomers) [196a] | JAK2 (Homo sapiens (Human), UniProt O60674) | C
FC(F)(F)c1cc(CN2CCC(c3nnn4cnc5[nH]ccc5c34)CC2)ccc1Cl [compound 155] | JAK2 (Homo sapiens (Human), UniProt O60674) | B
